target-entity: UniProt P61169
Sequence (P61169 whole entry): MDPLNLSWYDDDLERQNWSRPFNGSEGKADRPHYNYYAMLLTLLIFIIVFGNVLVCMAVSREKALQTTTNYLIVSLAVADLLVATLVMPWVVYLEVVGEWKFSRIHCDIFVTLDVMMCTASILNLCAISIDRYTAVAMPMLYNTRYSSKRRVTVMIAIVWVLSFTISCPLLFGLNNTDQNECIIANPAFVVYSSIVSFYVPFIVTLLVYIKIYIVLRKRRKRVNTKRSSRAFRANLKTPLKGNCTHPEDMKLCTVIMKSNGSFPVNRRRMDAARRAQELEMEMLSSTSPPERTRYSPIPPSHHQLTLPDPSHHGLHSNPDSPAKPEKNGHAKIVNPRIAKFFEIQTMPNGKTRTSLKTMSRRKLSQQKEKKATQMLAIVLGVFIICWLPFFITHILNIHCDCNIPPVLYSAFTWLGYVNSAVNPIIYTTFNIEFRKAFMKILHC
protocol-text: In vitro inhibition of [3H]spiperone binding to dopamine receptor D2 from rat brain limbic tissue at 1 uM
Assay type: tissue-based
condition-context: Limbic system
The entries below come with measured inhibition values attached.

Example cases with answers are listed next.
Cl.O=C1C2C3C=CC(C4C=CC43)C2C(=O)N1CCCCN1CCN(c2ccc(C(F)(F)F)cn2)CC1 (centres undefined) : 31%
O=C1C2C3C=CC(C4C=CC43)C2C(=O)N1CCCCN1CCN(c2cccc(Cl)c2)CC1 (centres undefined) : 3%

Form field: reported inhibition of Cl.O=C1C2C3C=CC(C4CCC34)C2C(=O)N1CCCCN1CCN(c2cccc(C(F)(F)F)c2)CC1 (centres undefined)
99%

Find the recorded inhibition belonging to Cl.O=C1C2C3C=CC(CCC3)C2C(=O)N1CCCCN1CCN(c2ncccn2)CC1 (centres undefined) and report it.
53%

Need inhibition of Cl.O=C1C2C3C=CC(C4CC34)C2C(=O)N1CCCCN1CCN(c2cccc(C(F)(F)F)c2)CC1 (centres undefined) , thanks.
91%

Recorded inhibition for Cl.O=C1C2C3C=CC(C4CC34)C2C(=O)N1CCCCN1CCN(c2cnccn2)CC1 (centres undefined) , please?
33%

What value of inhibition has been recorded for this entry: Cl.O=C1N(CCCCN2CCN(c3cnccn3)CC2)C(=O)C23C4C=CC(C4)C12C1C=CC3C1 (centres undefined)
14%

State the recorded inhibition for this entry: O=C1C2C3C=CC(CCC3)C2C(=O)N1CCCCN1CCN(c2cncc(Cl)n2)CC1 (centres undefined)
43%

Name the reported inhibition value associated with the compound Cl.O=C1C2C3C=CC(C4CC34)C2C(=O)N1CCCCN1CCN(c2ccc(C(F)(F)F)cn2)CC1 (centres undefined)
40%

---

target-entity: 5-hydroxytryptamine receptor 1A (Rattus norvegicus)
Sequence (P19327 whole entry): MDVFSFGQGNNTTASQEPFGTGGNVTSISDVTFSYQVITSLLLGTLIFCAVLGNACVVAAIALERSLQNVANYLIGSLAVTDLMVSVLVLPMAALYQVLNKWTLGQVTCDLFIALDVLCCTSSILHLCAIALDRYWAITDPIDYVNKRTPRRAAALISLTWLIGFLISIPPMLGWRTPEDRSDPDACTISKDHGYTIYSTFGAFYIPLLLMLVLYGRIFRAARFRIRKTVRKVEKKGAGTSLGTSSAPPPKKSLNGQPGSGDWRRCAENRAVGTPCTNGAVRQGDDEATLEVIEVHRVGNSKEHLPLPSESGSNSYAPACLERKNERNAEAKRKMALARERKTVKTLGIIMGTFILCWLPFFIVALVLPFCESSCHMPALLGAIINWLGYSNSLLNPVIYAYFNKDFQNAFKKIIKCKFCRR
pKi: −log10 of the molar value.
Outcome: Yes for pKi of at least 7; No for anything lower.

Field: example entries. Status: answers known.
COc1ccccc1N1CCN(CCCCN2C(=O)C3C4C=CC(C5C=CC54)C3C2=O)CC1.Cl (stereo not given) : Yes
Cl.O=C1C2C3CCC(C4CC43)C2C(=O)N1CCCCN1CCN(c2cccc(C(F)(F)F)c2)CC1 (stereo not given) : Yes
O=C1C2C3C=CC(C3)C2C(=O)N1CCCCN1CCN(c2nccnc2Cl)CC1 (stereo not given) : Yes

As a next step, examine the compound that follows.
Assess whether reported pKi for O=C1C2C3C=CC(C4CCC34)C2C(=O)N1CCCCN1CCN(c2cncc(Cl)n2)CC1 (stereo not given) sits at 7 or higher.
No
